# systemName: DNA dC->dU-editing enzyme APOBEC-3A (Homo sapiens, UniProt P31941)
# Sequence (P31941 whole entry): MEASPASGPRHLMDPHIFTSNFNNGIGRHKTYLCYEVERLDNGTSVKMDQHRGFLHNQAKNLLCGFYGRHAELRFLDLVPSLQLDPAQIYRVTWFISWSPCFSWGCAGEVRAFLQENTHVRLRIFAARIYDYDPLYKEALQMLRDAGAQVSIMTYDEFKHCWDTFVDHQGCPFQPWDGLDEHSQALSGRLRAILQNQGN
# testProtocol: Dose Response confirmation of small molecule APOBEC3A DNA Deaminase Inhibitors via a fluorescence-based single-stranded DNA deaminase assay. [Related pubchem assays (depositor defined):AID493011, AID493024]
# Assay type: functional
Activity calls are given as the source filed them.
// reported IC50 per item

INSERT INTO assay_data (smilesrepresentation, measured) VALUES
  ('CC1(C)Oc2ccc3ccc(=O)oc3c2C(/C=N/CCO)=C1O', '2.47 µM (active)'),
  ('C[N+]1(CCCCCCC(=O)C=NO)CCCCCC1', '4.03 µM (active)'),
  ('CC(=O)Nc1nnc(SCc2ccc(C(=O)Nc3ccccc3F)cc2)s1', '5.85 µM (active)');

In: What does the data say about its IC50? Entry: `Cn1c(SCC(=O)Nc2ccc3c(c2)oc2ccccc23)nnc1-c1ccccc1`
Out: 5.4 µM (active)

###

// reported AC50 per item
# testProtocol: non-specific 3'UTR reporter inhibition in Clone20-Shn3RL – cell-based, Renilla luciferase, cherry-picked, counter-screen for Shn3 inhibitor project, dose response (AID 624133)
# Type: functional
Activity calls are given as the source filed them.

INSERT INTO results (molecule, measured) VALUES
  ('CCOc1ccc2nc3cc(NCc4ccc(OC)cc4)ccc3c(N)c2c1', '23 µM (active)'),
  ('CN(c1ccccc1)S(=O)(=O)c1cccc(NC(=O)CSc2nncs2)c1', '15.8 µM (active)'),
  ('CCOC(=O)Cc1csc(SCC(=O)c2c(N)n(CC(C)C)c(=O)n(C)c2=O)n1', '8.62 µM (active)'),
  ('CCc1ccc(CNCc2ccc(OCC(O)CN(C)Cc3ccccc3)cc2)nc1 (stereo unspecified)', '14.2 µM (active)'),
  ('CCCCC(=O)NC(c1ccccc1Cl)c1ccc2cccnc2c1O (stereo unspecified)', '0.856 µM (active)');

In: What does the data say about its AC50? Entry: `Cc1ccc(NN2C(=O)C=C(c3ccc(Cl)cc3)C2=O)cc1`
Out: 12.6 µM (active)

###

Active and inactive are the calls of the source.
Lab note: IC50 readings collected with Protein-tyrosine kinase 2-beta (Homo sapiens, UniProt Q14289) for the following compounds.
Sequence (Q14289 whole entry): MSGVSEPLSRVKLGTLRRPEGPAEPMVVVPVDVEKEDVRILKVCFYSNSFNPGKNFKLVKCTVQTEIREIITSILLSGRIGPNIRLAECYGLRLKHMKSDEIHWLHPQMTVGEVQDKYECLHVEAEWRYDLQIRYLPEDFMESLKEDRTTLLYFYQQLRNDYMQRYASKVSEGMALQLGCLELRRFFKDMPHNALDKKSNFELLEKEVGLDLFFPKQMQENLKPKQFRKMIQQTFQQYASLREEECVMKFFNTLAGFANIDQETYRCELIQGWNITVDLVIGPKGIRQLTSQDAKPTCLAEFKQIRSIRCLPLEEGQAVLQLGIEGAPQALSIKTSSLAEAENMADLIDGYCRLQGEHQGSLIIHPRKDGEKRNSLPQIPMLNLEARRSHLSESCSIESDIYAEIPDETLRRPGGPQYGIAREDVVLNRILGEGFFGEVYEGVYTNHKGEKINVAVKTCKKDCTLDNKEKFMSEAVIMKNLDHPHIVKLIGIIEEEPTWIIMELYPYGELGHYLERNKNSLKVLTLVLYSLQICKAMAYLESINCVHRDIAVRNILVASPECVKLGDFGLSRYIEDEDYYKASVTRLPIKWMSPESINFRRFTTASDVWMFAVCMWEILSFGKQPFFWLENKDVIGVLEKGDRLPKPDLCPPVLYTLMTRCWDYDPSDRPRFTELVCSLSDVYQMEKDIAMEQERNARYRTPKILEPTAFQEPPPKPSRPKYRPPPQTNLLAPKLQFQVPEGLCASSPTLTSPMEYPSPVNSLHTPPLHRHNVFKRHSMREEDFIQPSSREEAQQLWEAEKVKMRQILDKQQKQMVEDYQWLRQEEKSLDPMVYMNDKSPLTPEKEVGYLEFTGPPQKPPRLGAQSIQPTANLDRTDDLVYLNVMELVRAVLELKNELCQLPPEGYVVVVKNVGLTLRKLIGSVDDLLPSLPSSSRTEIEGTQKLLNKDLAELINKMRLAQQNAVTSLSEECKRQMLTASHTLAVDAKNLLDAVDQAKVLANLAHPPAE

In: What does the data say about its IC50? Entry: `CC(=O)c1ccc(NC(=O)c2ccc3nc(-c4ccco4)c(-c4ccco4)nc3c2)cc1`
Out: 1.24 µM (active)

In: What does the data say about its IC50? Entry: CC(C(=O)O)N1C(=O)/C(=C/C=C/c2ccco2)SC1=S (centres undefined)
Out: 1.07 µM (active)

In: What does the data say about its IC50? Entry: `O=C(OCC(=O)N1CCN(C(=O)c2ccco2)CC1)c1cc(-c2ccc(Cl)c(Cl)c2Cl)nc2ccccc12`
Out: 5.94 µM (active)

In: What does the data say about its IC50? Entry: `COC(=O)CSc1nc(C(C)C)nc2ccccc12`
Out: > 69.5 µM (not active)

###

# systemName: ATP-dependent molecular chaperone HSP82 (Candida albicans (strain WO-1) (Yeast))
# Sequence (C4YTQ8 whole entry): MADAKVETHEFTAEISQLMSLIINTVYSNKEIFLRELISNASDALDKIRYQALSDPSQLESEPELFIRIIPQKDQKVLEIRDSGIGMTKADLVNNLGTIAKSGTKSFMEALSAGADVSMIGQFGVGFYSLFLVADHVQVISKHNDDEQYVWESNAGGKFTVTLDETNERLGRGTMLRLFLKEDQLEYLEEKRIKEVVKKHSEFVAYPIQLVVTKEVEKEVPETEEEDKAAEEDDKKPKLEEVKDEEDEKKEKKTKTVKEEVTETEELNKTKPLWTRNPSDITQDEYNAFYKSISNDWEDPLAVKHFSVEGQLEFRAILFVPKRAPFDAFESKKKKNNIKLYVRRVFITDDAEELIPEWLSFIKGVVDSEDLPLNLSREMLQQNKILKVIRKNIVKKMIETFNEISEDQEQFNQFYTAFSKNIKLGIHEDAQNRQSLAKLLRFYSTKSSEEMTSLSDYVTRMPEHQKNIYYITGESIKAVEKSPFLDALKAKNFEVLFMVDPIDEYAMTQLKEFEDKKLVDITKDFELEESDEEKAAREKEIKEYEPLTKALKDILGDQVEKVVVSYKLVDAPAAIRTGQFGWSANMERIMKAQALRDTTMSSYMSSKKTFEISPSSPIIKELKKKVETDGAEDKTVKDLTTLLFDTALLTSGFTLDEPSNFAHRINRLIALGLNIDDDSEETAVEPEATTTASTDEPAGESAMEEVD
# testProtocol: steroid-induced GRE reporter decrease in yeast – S. cerevisiae, luminescence, Hsp90 inhibitor project, dose response (AID 2400);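 further: beta-galactosidase luminescence from glucocorticoid response element reporter as proxy for Hsp90 function; inhibitor potency where signal loss means Hsp90 inhibition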
# Type: functional, cell-based
Active and inactive are the calls of the source.
// reported EC50 per item

Previously resolved entries follow.
INSERT INTO measurements (smilesrepresentation, systemname, reportedmetric, measured) VALUES
  ('O=C(Oc1c(Cl)cc(Cl)c2cccnc12)c1ccco1', 'ATP-dependent molecular chaperone HSP82 (Candida albicans (strain WO-1) (Yeast))', 'EC50', '15.3 µM (active)'),
  ('Oc1ccc(N=Nc2nccs2)c(O)c1', 'ATP-dependent molecular chaperone HSP82 (Candida albicans (strain WO-1) (Yeast))', 'EC50', '21.8 µM (active)'),
  ('O=[N+]([O-])c1nn(-c2ccc(Cl)cc2)[n+]([O-])c1NCc1cccnc1', 'ATP-dependent molecular chaperone HSP82 (Candida albicans (strain WO-1) (Yeast))', 'EC50', '> 150 µM (inactive)');

Moving on to the next compound.
In: What does the data say about its EC50? Entry: `CCN1C(=Cc2sc3ccccc3[n+]2C)C=Cc2cccc(C)c21`
Out: 37.3 µM (active)

###

# testProtocol: NIH-3T3 fibroblast cytotoxicity, dose response, cytotoxicity control, cell-based, fluorescence, Alamar Blue, secondary assay (AID 2327);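 further: NIH-3T3 mouse fibroblasts cultured with fluconazole at 8 µg/mL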
# Assay type: functional
Activity calls are given as the source filed them.
reportedMetric: EC50

INSERT INTO results (molecule, reportedmetric, measured) VALUES
  ('Oc1ccc(N=Nc2nccs2)c(O)c1', 'EC50', '16 µM (inconclusive)'),
  ('CCN(CC)C(=O)/C(=C/c1ccc2c(c1)OCO2)NC(=O)c1ccc(Br)cc1', 'EC50', '> 150 µM (inactive)'),
  ('O=C(Oc1c(Cl)cc(Cl)c2cccnc12)c1ccco1', 'EC50', '56.7 µM (inconclusive)'),
  ('Cc1ccc(-c2nc3ccc(Cl)cc3c(=O)n2O)cc1', 'EC50', '> 160 µM (inactive)'),
  ('CNC(=O)c1nnsc1[S+]([O-])c1ccc(Cl)cc1 (configuration not stated)', 'EC50', '5.05 µM (inconclusive)'),
  ('CNC[C@H](Cc1ccccc1)NC[C@@H](Cc1cccc2ccccc12)NCCc1ccc(C)cc1', 'EC50', '> 160 µM (inconclusive)');

Moving on to the next molecule.
In: What does the data say about its EC50? Entry: `CCCCCCCCC(=O)NNC(=O)c1c(O)c2ccccc2n(CC)c1=O`
Out: > 150 µM (inactive)

###

# systemName: Aminopeptidase N (Plasmodium falciparum FcB1/Columbia, UniProt O96935)
# Sequence (O96935 whole entry): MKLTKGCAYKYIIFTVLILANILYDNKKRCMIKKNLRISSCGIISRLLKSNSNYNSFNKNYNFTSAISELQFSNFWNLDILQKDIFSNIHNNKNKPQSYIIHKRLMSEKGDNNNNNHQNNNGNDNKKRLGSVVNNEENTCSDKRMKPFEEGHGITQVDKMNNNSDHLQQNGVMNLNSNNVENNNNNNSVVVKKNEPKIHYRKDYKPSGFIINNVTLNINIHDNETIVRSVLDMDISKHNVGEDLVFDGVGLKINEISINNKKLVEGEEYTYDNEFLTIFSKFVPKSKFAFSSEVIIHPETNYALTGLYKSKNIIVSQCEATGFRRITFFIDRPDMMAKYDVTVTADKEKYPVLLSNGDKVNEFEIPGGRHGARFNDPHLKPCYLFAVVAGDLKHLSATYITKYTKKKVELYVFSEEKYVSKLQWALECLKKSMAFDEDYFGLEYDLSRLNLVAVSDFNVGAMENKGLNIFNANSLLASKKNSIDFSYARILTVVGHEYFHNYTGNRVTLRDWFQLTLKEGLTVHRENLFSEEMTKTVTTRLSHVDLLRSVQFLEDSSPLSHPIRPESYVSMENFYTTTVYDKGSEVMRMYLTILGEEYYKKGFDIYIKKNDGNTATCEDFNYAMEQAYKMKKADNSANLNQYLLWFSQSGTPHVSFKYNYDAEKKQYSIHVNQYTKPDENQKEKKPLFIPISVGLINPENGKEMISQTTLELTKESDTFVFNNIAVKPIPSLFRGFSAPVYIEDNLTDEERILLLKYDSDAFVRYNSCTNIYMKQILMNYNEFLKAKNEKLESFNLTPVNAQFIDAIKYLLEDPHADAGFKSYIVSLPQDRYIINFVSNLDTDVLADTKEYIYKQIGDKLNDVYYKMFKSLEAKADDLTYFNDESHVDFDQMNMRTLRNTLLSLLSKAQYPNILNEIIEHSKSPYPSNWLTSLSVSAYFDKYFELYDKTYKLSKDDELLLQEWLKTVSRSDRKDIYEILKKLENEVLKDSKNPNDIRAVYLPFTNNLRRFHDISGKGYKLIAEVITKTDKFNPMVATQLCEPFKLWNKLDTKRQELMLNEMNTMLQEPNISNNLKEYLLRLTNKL
# testProtocol: malaria alanyl aminopeptidase activity blockers – biochemical, fluorogenic H-Leu-NHMec substrate, 1536-well (AID 1445)
# Set-up: species or system Plasmodium falciparum 3D7, 3D7
Active and inactive are the calls of the source.
// reported IC50 per item

Previously resolved entries follow.
INSERT INTO measurements (compound, reportedmetric, measured) VALUES
  ('N#CC(C#N)=C1C=CC=CN1/C(=C\c1ccco1)C(=O)c1ccccc1', 'IC50', '65.2 µM (active)'),
  ('COc1ccc2cc3cc(C(=O)NCC4CCCO4)oc3nc2c1 (centres undefined)', 'IC50', '79.3 µM (active)'),
  ('COC(=O)Cc1cc(=O)oc2cc(O)ccc12', 'IC50', '36.6 µM (active)');

Moving on to the next compound.
In: What does the data say about its IC50? Entry: CCC1CCCCN1C(=S)NC(=O)c1cccs1 (centres undefined)
Out: 30 µM (active)

###

# systemName: Sentrin-specific protease 8 (Homo sapiens, UniProt Q96LD8);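 further: luminescence read-out of SENP8 inhibition, dose-response confirmation following an ultra-high-throughput screen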
# Sequence (Q96LD8 whole entry): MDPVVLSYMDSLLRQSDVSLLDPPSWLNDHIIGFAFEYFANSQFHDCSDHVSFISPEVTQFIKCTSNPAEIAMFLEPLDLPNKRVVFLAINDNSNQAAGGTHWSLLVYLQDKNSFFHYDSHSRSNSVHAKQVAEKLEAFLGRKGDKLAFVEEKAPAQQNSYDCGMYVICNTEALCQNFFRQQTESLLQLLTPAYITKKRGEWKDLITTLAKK
# Format: functional
The source made the active and inactive calls.
Just give me one of these, please: active, inactive

Would you please look over these solved cases?
INSERT INTO results (smilesrepresentation, systemname, category) VALUES
  ('Nc1nnc2c(n1)CCCC2', 'Sentrin-specific protease 8 (Homo sapiens, UniProt Q96LD8)', 'active'),
  ('O=C(Nc1cccc(F)c1)Nc1ccc2c(c1)CCC2', 'Sentrin-specific protease 8 (Homo sapiens, UniProt Q96LD8)', 'inactive');

In: I'd appreciate the recorded outcome for `O=C(N/N=C/c1c(O)ccc2ccccc12)c1[nH]ncc1Br` from this test.
Out: inactive

In: I'd appreciate the recorded outcome for `CCOc1ccc2nc(NC(=O)Nc3cccs3)sc2c1` from this test.
Out: active

###

// reported EC50 per item
# testProtocol: alpha-synuclein stem-loop luciferase translation blockers – H4 neuroglioma cells, luminescence, confirmation (AID 1988)
# Assay type: functional, cell-based
The source made the active and inactive calls.

Previously resolved entries follow.
INSERT INTO measurements (molecule, measured) VALUES
  ('COCCCNC(=O)C(=O)Nc1ccc2c(c1)N(S(=O)(=O)c1cccs1)CCC2', '0.419 µM (active)'),
  ('CNc1nc(N/N=C/c2cc3c(cc2[N+](=O)[O-])OCO3)nc(Nc2ccccc2)n1', '12.7 µM (active)'),
  ('c1cnc2c(c1)ccc1cccnc12', '7.02 µM (active)');

In: What does the data say about its EC50? Entry: `C(=N\N1CCN(C(c2ccccc2)c2ccccc2)CC1)/c1ccc2c(c1)OCO2`
Out: > 120 µM (not active)

In: What does the data say about its EC50? Entry: COc1cccc(Cn2nnc3c(O)nc(C4CCCN(C(=O)c5ccccc5Cl)C4)nc32)c1 (stereo unspecified)
Out: > 120 µM (not active)

In: What does the data say about its EC50? Entry: `CC(C)n1c(CN(C)Cc2ccccc2)nc2c1c(=O)n(C)c(=O)n2C`
Out: > 120 µM (not active)

###

# systemName: Streptokinase A (Streptococcus pyogenes serotype M1, UniProt P10520)
# Sequence (P10520 whole entry): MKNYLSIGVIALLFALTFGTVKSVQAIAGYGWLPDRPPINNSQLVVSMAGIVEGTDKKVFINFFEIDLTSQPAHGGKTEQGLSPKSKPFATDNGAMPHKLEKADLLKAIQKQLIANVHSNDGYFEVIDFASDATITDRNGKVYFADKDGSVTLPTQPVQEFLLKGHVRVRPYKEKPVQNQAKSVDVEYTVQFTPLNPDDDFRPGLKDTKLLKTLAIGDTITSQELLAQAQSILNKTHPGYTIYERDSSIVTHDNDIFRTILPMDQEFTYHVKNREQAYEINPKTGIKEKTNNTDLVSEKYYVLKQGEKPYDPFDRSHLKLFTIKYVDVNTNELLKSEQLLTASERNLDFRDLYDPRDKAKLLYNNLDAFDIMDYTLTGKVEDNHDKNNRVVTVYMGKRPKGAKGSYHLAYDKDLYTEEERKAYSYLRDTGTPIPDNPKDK
# testProtocol: viability-normalized secreted streptokinase activity reduction – plasminogen activation absorbance, OD405, dose response (AID 1914);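 further: secreted streptokinase activity via plasminogen activation per viability signal from cell pellet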
# Type: functional, Streptococcus pyogenes M1 GAS
Calls of active or inactive are those of the source.
reportedMetric: EC50

Previously resolved entries follow.
INSERT INTO assay_data (compound, reportedmetric, measured) VALUES
  ('Cc1cccc(CCNC(=O)CC2C(=O)NCCN2Cc2ccccc2C)n1 (stereo unspecified)', 'EC50', '> 150 µM (not active)'),
  ('COc1ccccc1C(=O)NC(=S)Nc1ccc(NC(=O)c2ccco2)cc1', 'EC50', '> 150 µM (not active)'),
  ('COc1ccc(Cn2c(SCc3cc(C)ccc3C)nc3cc(OC)c(OC)cc3c2=N)cc1', 'EC50', '6.67 µM (active)'),
  ('Cc1ccc(OP(=O)(Nc2cccc(C)c2)Oc2ccc(C)cc2)cc1', 'EC50', '5.1 µM (active)'),
  ('CCN1C(=Cc2sc3ccccc3[n+]2C)C=Cc2cccc(C)c21', 'EC50', '> 150 µM (not active)');

In: Quick check: EC50 on Streptokinase A (Streptococcus pyogenes serotype M1, UniProt P10520), item `CNC[C@H](Cc1ccccc1)NC[C@@H](Cc1cccc2ccccc12)NCCc1ccc(C)cc1` ?
Out: > 150 µM (not active)

In: Quick check: EC50 on Streptokinase A (Streptococcus pyogenes serotype M1, UniProt P10520), item Cc1conc1NC(c1cccs1)c1ccc2cccnc2c1O (stereo unspecified) ?
Out: > 150 µM (not active)

In: Quick check: EC50 on Streptokinase A (Streptococcus pyogenes serotype M1, UniProt P10520), item `O=C(NNc1ccccc1Br)C(O)(c1cccc(C(F)(F)F)c1)c1cccc(C(F)(F)F)c1` ?
Out: 2.13 µM (active)

In: Quick check: EC50 on Streptokinase A (Streptococcus pyogenes serotype M1, UniProt P10520), item `CCOc1ccc(-n2cc(-c3ccccc3)c3c(=S)[nH]cnc32)cc1` ?
Out: > 150 µM (not active)

In: Quick check: EC50 on Streptokinase A (Streptococcus pyogenes serotype M1, UniProt P10520), item O=C(NC(NC(=S)Nc1ccccc1Cl)C(Cl)(Cl)Cl)c1cccc(Cl)c1 (stereo unspecified) ?
Out: 5.81 µM (active)

In: Quick check: EC50 on Streptokinase A (Streptococcus pyogenes serotype M1, UniProt P10520), item COc1ccc(C)cc1NC(=O)NC1CCCc2ccccc21 (stereo unspecified) ?
Out: > 150 µM (not active)

In: Quick check: EC50 on Streptokinase A (Streptococcus pyogenes serotype M1, UniProt P10520), item `O=C(N/N=C/c1c[nH]c2ccccc12)c1[nH]c2ccc(Br)cc2c1-c1ccccc1` ?
Out: > 150 µM (not active)
